species on record: Rattus norvegicus; assay: Open TG-GATES - Regimen: Single; assay type: toxicity, organism-based, Sprague-Dawley; parameters: regimen Single, gender Male, age 6 weeks; conditions: in vivo, po, 0 mg/kg, 9 h, tissue Blood, route gavage, dose level Control
parameter_measured: PT (s)
Number only, in s; omit the unit.

So, CN(C)CCC(c1ccc(Cl)cc1)c1ccccn1 (stereo not drawn) ? Its PT was 15

So, NC1=NC(=O)C(c2ccccc2)O1 (stereo not drawn) ? Its PT was 13.3

So, `CCOc1ccc(NC(C)=O)cc1` ? Its PT was 13.7

So, `COC(=O)C1=C(C)NC(C)=C(C(=O)OC)C1c1ccccc1[N+](=O)[O-]` ? Its PT was 14.7

So, `CN/C(=N/CCSCc1nc[nH]c1C)NC#N` ? Its PT was 12.8

So, `CC(C)NNC(=O)c1ccncc1` ? Its PT was 15.7

So, `Cc1nnc2n1-c1ccc(Cl)cc1C(c1ccccc1Cl)=NC2` ? Its PT was 13.7

So, `CNC(=C[N+](=O)[O-])NCCSCc1ccc(CN(C)C)o1` ? Its PT was 12.3

So, `Nc1c2c(nc3ccccc13)CCCC2` ? Its PT was 16

So, `O=C(OC[C@H]1O[C@@H](OC(=O)c2cc(O)c(O)c(OC(=O)c3cc(O)c(O)c(O)c3)c2)[C@H](OC(=O)c2cc(O)c(O)c(OC(=O)c3cc(O)c(O)c(O)c3)c2)[C@@H](OC(=O)c2cc(O)c(O)c(OC(=O)c3cc(O)c(O)c(O)c3)c2)[C@@H]1OC(=O)c1cc(O)c(O)c(OC(=O)c2cc(O)c(O)c(O)c2)c1)c1cc(O)c(O)c(OC(=O)c2cc(O)c(O)c(O)c2)c1` ? Its PT was 12.1

So, CN1C(=O)CCS(=O)(=O)C1c1ccc(Cl)cc1 (stereo not drawn) ? Its PT was 13.2

So, `Brc1ccccc1` ? Its PT was 12.3

So, `CCCc1cc(=O)[nH]c(=S)[nH]1` ? Its PT was 12.5

###

species on record: Rattus norvegicus; experiment: Open TG-GATES - Regimen: Single; type: toxicity, organism-based, Sprague-Dawley; parameters: regimen Single, gender Male, age 6 weeks; settings: in vivo, po, 300 mg/kg, 6 h, tissue Plasma, route gavage, dose level Middle
parameter_measured: Na (meq/L)
Number only, in meq/L; omit the unit.

So, O=C(OC[C@H]1O[C@@H](OC(=O)c2cc(O)c(O)c(OC(=O)c3cc(O)c(O)c(O)c3)c2)[C@H](OC(=O)c2cc(O)c(O)c(OC(=O)c3cc(O)c(O)c(O)c3)c2)[C@@H](OC(=O)c2cc(O)c(O)c(OC(=O)c3cc(O)c(O)c(O)c3)c2)[C@@H]1OC(=O)c1cc(O)c(O)c(OC(=O)c2cc(O)c(O)c(O)c2)c1)c1cc(O)c(O)c(OC(=O)c2cc(O)c(O)c(O)c2)c1 [TANNIC ACID] ? Its Na was 139.2

So, CNC(=C[N+](=O)[O-])NCCSCc1ccc(CN(C)C)o1 [RANITIDINE] ? Its Na was 140.4

So, COC(=O)C1=C(C)NC(C)=C(C(=O)OC)C1c1ccccc1[N+](=O)[O-] [NIFEDIPINE] ? Its Na was 136.6

So, Cc1nnc2n1-c1ccc(Cl)cc1C(c1ccccc1Cl)=NC2 [TRIAZOLAM] ? Its Na was 141.8

So, CN/C(=N/CCSCc1nc[nH]c1C)NC#N [CIMETIDINE] ? Its Na was 141
